# tested_on: T1, recombinant LILRB1 ECD (human, UniProt Q8NHL6 24-461)
# T1 construct: also called biotinylated LILRB1 ECD
# experiment_summary: ELISA, LILRB1 ECD binding to HLA-G-Fc
measurement_label: pIC50
Hey, just a heads up that pIC50 is the negative log base 10 of the concentration in molar.

Example entries begin here.
{"binder": "A-036 (antibody, V domains shown, tested as IgG) VH: QVQLVQSGAEVKKPGSSVKVSCKASGGTFSSYAISWVRQAPGQGLEWMGGIIPIFGTANYAQKFQGRVTITADESTSTAYMELSSLRSEDTAVYYCAKDLGTYSSGWPYYYGMDVWGQGTTVTVSS VL: SYELTQPPSVSVSPGQTASITCSGDKLGDKYASWYQQKPGQSPVLVIYQDSKRPSGIPERFSGSNSGNTATLTISGTQAEDEADYYCQLTHLTIYVFGGGTKLTVL", "measurement_label": "pIC50", "meas_value": 8.92}
{"binder": "A-007 (antibody, V domains shown, tested as IgG) VH: QVQLVQSGAEVKKPGSSVKVSCKASGGSFREYAFSWVRQAPGQGLEWMGSIIPTFHTSNYAGKFQGRVTITADESTSTAYMELSSLRSEDTAVYYCAKDLGTYSSGWPYYYGMDVWGQGTTVTVSS VL: SYELTQPPSVSVSPGQTASITCSGDKLGDKYASWYQQKPGQSPVLVIYQDSKRPSGIPERFSGSNSGNTATLTISGTQAEDEADYYCQSTTHTSFVFGGGTKLTVL", "measurement_label": "pIC50", "meas_value": 8.48}
{"binder": "A-041 (antibody, V domains shown, tested as IgG) VH: QVQLVQSGAEVKKPGSSVKVSCKASGGTFSSYAISWVRQAPGQGLEWMGGIIPIFGTANYAQKFQGRVTITADESTSTAYMELSSLRSEDTAVYYCAKGPPVGSSSWYTDWYFDLWGRGTLVTVSS VL: SYELTQPPSVSVSPGQTASITCSGDKLGDKYASWYQQKPGQSPVLVIYQDSKRPSGIPERFSGSNSGNTATLTISGTQAEDEADYYCSSYGSGLTVVFGGGTKLTVL", "measurement_label": "pIC50", "meas_value": 8.82}
{"binder": "A-014 (antibody, V domains shown, tested as IgG) VH: QVQLVQSGAEVKKPGSSVKVSCKASGGTFSSYAINWVRQAPGQGLEWMGGIIPIFHTSNYAQKFQGRVTITADESTSTAYMELSSLRSEDTAVYYCAKDLGTYSSGWPYYYGMDVWGQGTTVTVSS VL: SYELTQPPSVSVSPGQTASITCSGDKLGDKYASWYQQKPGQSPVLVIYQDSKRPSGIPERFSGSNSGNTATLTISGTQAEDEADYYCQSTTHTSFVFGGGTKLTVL", "measurement_label": "pIC50", "meas_value": 8.42}
{"binder": "A-004 (antibody, V domains shown, tested as IgG) VH: QVQLVQSGAEVKKPGSSVKVSCKASGGTFRTKAIAWVRQAPGQGLEWMGGIIPIFSTANYAPKFQGRVTITADESTSTAYMELSSLRSEDTAVYYCAKDLGTYSSGWPYYYGMDVWGQGTTVTVSS VL: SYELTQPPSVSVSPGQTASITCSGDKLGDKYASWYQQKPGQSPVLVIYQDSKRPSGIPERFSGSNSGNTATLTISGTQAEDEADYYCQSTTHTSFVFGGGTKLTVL", "measurement_label": "pIC50", "meas_value": 8.36}
{"binder": "A-018 (antibody, V domains shown, tested as IgG) VH: QVQLVQSGAEVKKPGSSVKVSCKASGGTFSTSAISWVRQAPGQGLEWMGGIIPIFYTANYAQKFQGRVTITADESTSTAYMELSSLRSEDTAVYYCAKDLGTYSSGWPYYYGMDVWGQGTTVTVSS VL: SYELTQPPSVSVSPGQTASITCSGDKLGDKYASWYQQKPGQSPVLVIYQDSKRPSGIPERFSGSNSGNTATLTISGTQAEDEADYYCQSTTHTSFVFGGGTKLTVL", "measurement_label": "pIC50", "meas_value": 8.30}
{"binder": "A-001 (antibody, V domains shown, tested as IgG; also called parental antibody A-001) VH: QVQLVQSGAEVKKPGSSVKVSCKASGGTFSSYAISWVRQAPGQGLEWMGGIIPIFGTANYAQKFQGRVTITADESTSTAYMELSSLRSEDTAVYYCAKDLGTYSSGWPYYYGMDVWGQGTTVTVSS VL: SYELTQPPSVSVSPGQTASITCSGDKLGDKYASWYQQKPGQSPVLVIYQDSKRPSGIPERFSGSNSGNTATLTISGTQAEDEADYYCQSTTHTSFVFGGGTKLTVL", "measurement_label": "pIC50", "meas_value": 8.29}
{"binder": "A-028 (antibody, V domains shown, tested as IgG) VH: QVQLVQSGAEVKKPGSSVKVSCKASGYSFSEHAMSWVRQAPGQGLEWMGGIIPKFSTSVFAQKFQGRVTITADESTSTAYMELSSLRSEDTAVYYCAKGPPVGSSSWYTDWYFDLWGRGTLVTVSS VL: SYELTQPPSVSVSPGQTASITCSGDKLGDKYASWYQQKPGQSPVLVIYQDSKRPSGIPERFSGSNSGNTATLTISGTQAEDEADYYCLSYGAHSHGVVFGGGTKLTVL", "measurement_label": "pIC50", "meas_value": 8.41}

Query :: Determine its reported pIC50: A-023 (antibody, V domains shown, tested as IgG) VH: QVQLVQSGAEVKKPGSSVKVSCKASGYTFQQYAMSWVRQAPGQGLEWIGGIIPQFSTSVYAQKFQGRVTITADESTSTAYMELSSLRSEDTAVYYCAKGPPVGSSSWYTDWYFDLWGRGTLVTVSS VL: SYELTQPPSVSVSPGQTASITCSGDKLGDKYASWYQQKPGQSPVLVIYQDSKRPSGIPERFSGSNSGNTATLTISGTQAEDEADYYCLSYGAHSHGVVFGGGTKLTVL
Result :: 8.12

Query :: Determine its reported pIC50: A-017 (antibody, V domains shown, tested as IgG) VH: QVQLVQSGAEVKKPGSSVKVSCKASGGTFSSYAISWVRQAPGQGLEWMGGIIPYFSLANYAPKFQGRVTITADESTSTAYMELSSLRSEDTAVYYCAKDLGTYSSGWPYYYGMDVWGQGTTVTVSS VL: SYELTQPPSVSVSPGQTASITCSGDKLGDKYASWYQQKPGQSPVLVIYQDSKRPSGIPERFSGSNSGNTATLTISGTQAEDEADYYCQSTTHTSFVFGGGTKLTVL
Result :: 8.35
